Biological target: Human CD79A+CD79B antigen (human) (UniProt P11912)
Sequence (P11912 33-143 limits assumed, chain 1 of 2): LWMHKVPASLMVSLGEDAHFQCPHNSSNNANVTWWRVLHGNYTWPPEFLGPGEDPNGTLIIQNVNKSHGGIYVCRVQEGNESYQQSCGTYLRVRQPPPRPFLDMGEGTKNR
Sequence (P40259 29-159 limits assumed, chain 2 of 2, further chain): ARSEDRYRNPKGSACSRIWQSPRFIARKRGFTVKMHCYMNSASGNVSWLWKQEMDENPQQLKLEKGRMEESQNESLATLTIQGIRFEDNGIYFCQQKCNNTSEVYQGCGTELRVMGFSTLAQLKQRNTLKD
Assay: ELISA on coated antigen, anti-myc detection; 20ug antibody added
Readout kind: OD450 nm
Note: state the figure and append the unit.

Binder	OD450 nm
anti-CD79B single-domain antibody JYB8 (VHH, not shown: small tags and cut ends) VHH: DVQLQESGGGLMQPGGSLSLTCTASISSLSIWVRAWHRQAPGKQRELVAAINSDGQTMYADSVKGRFTISRDSAKTTVSLQMDSLKPEDTAVYYCNVVTPKGQQYWGQGTQVTVSS	0.922 OD450
anti-CD79B single-domain antibody JYB14 (VHH, Alpaca VHH from a phage library; ELISA detected with an anti-myc antibody; a myc tag is not described; not shown: His-tag protein at the C-terminal end) VHH: DVQLQESGGGLVQPGGSLSLTCTASISSLTIWVRAWHRQAPGKQRELVAAINSDGQTMYADSVKGRFTISRDNAKTTVSLQMDSLKPEDTAVYYCNVVTPNGQQYWGQGTQVTVSS	0.855 OD450
anti-CD79B single-domain antibody JYB11 (VHH, Alpaca VHH from a phage library; ELISA detected with an anti-myc antibody; a myc tag is not described; not shown: His-tag protein at the C-terminal end) VHH: DVQLQESGGGLVQPGGSLSLSCAASMSSPSLWVRAWHRQAPGKQRELVAAINSDGQTMYADSVKGRFTISRDNAKTLVSLQMDSLKPEDTAVYYCNVVTPRGQQYWGQGTQVTVSS	0.612 OD450
anti-CD79B single-domain antibody JYB10 (VHH, Alpaca VHH from a phage library; ELISA detected with an anti-myc antibody; a myc tag is not described; not shown: His-tag protein at the C-terminal end) VHH: DVQLQESGGGLVQPGGSLSLSCAASISSSSIWVRAWHRQAPGKQRELVAAINNDGQTMYADSVKGRFTISRDNAKTTVSLQMNSLKPEDTAVYYCNVVTPKGHQYWGQGTQVTVSS	0.816 OD450

Query string: Returns the measured OD450 nm for the input binder. Input: anti-CD79B single-domain antibody JYB4 (VHH, Alpaca VHH from a phage library; not shown: His-tag protein at the C-terminal end) VHH: DVQLQESGGGLVQPGGSLRLSCAASGFAFSLYAMSWARQAPGKGLEWVSDIYGDDDSRRNYADSVKGRFTISRDNAKNTVYLQMTNLQPEDTALYYCGKGRDGTRWSAREYEYRGQGTQVTVSS
Result string: 0.658 OD450
